The reader will find reported pEC50 values listed item by item below.
# system: GCase (Homo sapiens)
# Construct: endogenous in cells; host or cells: HeLa cells
# test: activation of GCase in a live cell PFB assay in HELA cells
# Assay type: cell-based
# experimental-conditions: activation of GCase, EC50 ranges
pEC50: −log10 of the molar value.

Sample answers from the record:
Fill in reported pEC50 for this entry: Cc1nn(CC(F)F)c2nc(N3CCC4(CCN(c5ccnc(C(F)(F)F)c5)C4=O)C3)ncc12 (centres unmarked) [Cmpd 515]
> 5.00

Write down pEC50 measured for item Cc1cnc(C(F)(F)F)nc1N1CCC2(CCN(c3cnc4cnn(CC(F)F)c4n3)CC2)C1=O [Cmpd 842]
4.30 to 5.00

Fill in reported pEC50 for this entry: Cc1nc(N2CC[C@@]3(CCN(c4cnc5c(C)nn(C6COC6)c5n4)C3)C2)cc(C(F)(F)F)n1 [Cmpd 1123]
4.30 to 5.00

Return pEC50 for the following molecule: CCOc1nn(C2COC2)c2nc(N3CCC4(CN(c5ccnc(C(F)(F)F)c5)C4)C3)cnc12 [Cmpd 944]
> 5.00

Return pEC50 for the following molecule: Cc1nc(N2CCC3(C2)CN(c2cnc4cnn(CC(F)(F)F)c4n2)C3)cc(C(F)(F)F)n1 [Cmpd 552]
> 5.00

Please supply the value of reported pEC50 for the item FC(F)Cn1ncc2ncc(N3CCC4(CC3)CC(COc3cncc(C(F)(F)F)c3)C4)nc21 [Cmpd 696]
> 5.00

For the molecule Fc1cc(F)cc(OC2CC3(CCCN(c4cnc5cnn(CC(F)F)c5n4)C3)C2)c1 (centres unmarked) [Compound 31] , give its measured pEC50 value.
4.30 to 5.00

Pending molecule:
Give a short answer stating reported pEC50 for Cc1nn(C2COC2)c2nc(N3CC4(CC(=O)N(c5ccnc(C(F)(F)F)c5)C4)C3)cnc12 [Cmpd 349] .
4.30 to 5.00

---

The following compounds are listed with their measured EC50 values.
# system: GCase (Homo sapiens)
# Construct: endogenous in cells; host or cells: HeLa cells
# test: activation of GCase in a live cell PFB assay in HELA cells
# Format: cell-based
# experimental-conditions: activation of GCase, EC50 ranges

Check the records and state EC50 for FC(F)Cn1ncc2ncc(N3CCCC4(C3)CN(c3ccncc3C(F)(F)F)C4)nc21
10 to 50 µM

In one line, give reported EC50 of the entry FC(F)(F)c1cncc(N2CCC3(CCN(c4cnc5cnn(C6COC6)c5n4)CC3)C2)n1 .
< 10 µM

Tell me its EC50 given FC(F)Cn1ncc2ncc(N3CCC4(C3)CN(c3nccc(C(F)(F)F)n3)C4)nc21 as the entry.
10 to 50 µM

For Cc1nc(N2CCC3(CCN(c4ncc5c(C)nn(C6COC6)c5n4)CC3)C2)cc(C(F)(F)F)n1 , write its EC50.
> 100 µM

// fetch EC50 given entry O=C1N(c2cc(C(F)(F)F)ccn2)CCC12CCN(c1nccn3cncc13)CC2
> 100 µM

Continuing:
Identify measured EC50 associated with CCc1nn(CC(F)F)c2nc(N3CCC4(CN(c5cc(C(F)(F)F)nc(C)n5)C4)C3)ncc12
10 to 50 µM

Give me measured EC50, please, for this compound: O=C1CC2(CCN(c3cnc4cnn(CC(F)F)c4n3)CC2)CN1Cc1ccc(C(F)(F)F)cn1
10 to 50 µM

Retrieve EC50 measured for O=C1CC2(CC3CCC(C2)N3c2cnc3cnn(CC(F)F)c3n2)CN1c1cc(C(F)(F)F)ccn1 (centres unmarked) and print it.
10 to 50 µM

---

# system: GCase (Homo sapiens, UniProt P04062)
# Construct: endogenous in cells; host or cells: HeLa cells
# Sequence (P04062 40-536): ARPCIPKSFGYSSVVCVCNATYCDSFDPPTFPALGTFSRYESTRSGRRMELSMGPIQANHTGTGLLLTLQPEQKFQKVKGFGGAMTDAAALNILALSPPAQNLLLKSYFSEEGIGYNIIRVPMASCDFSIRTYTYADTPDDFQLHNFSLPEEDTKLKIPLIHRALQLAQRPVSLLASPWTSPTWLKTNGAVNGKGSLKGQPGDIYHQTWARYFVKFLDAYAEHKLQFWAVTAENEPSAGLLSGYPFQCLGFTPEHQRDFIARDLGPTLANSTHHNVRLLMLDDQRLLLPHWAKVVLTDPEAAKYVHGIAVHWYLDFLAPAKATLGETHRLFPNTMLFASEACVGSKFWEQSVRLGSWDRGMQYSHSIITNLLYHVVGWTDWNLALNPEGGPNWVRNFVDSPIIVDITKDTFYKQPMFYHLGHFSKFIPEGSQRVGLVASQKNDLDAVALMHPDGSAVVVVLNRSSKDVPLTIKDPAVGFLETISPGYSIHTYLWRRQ
# test: activation of GCase in a live cell PFB assay in HELA cells
# Format: cell-based
# experimental-conditions: activation of GCase, EC50 ranges
# Description: Exemplary compounds were evaluated for activation of GCase in a live cell PFB assay in HELA cells (essentially as described in Ysselstein et al., “LRRK2 kinase activity regulates lysosomal glucocerebrosidase in neurons derived from Parkinson's disease patients” Nature Communications (2019) 10:5570). […] EC50 ranges: A: <10 μM; B: >10-50 μM; C: >50-100 μM; D: >100 μM.
pEC50: −log10 of the molar value.
observable: pEC50

Answer with reported pEC50 of Cc1nc(C(F)(F)F)ncc1N1CCC2(CCN(c3cnc4cnn(C5COC5)c4n3)CC2)C1
4.30 to 5.00

Item CCOc1nn(CC(F)F)c2nc(N3CCC4(CN(c5ccnc(C(F)(F)F)c5)C4)C3)cnc12 : provide pEC50
> 5.00

State its pEC50 for this compound: CCn1c(N2CCC3(CN(c4ccnc(C(F)(F)F)c4)C3)C2)nc2c(cnn2CC(F)F)c1=O
4.30 to 5.00

Check the records and state pEC50 for Fc1ccc(F)c(OC2CC3(CCCN(c4cnc5cnn(CC(F)F)c5n4)C3)C2)c1 (stereo not shown)
4.30 to 5.00

State its pEC50 for this compound: FC(F)Cn1ncc2ncc(N3CC4(CCN(c5ccnc(C(F)(F)F)c5)CC4)C3)nc21
> 5.00

Continuing:
Output pEC50 of O=C1N(c2ccnc(C(F)(F)F)c2)CCC12CCN(c1cnc3cnn(CC(F)F)c3n1)C2 (stereo not shown)
> 5.00

Determine from records and report pEC50 for Cn1c(=O)n(CC(F)F)c2nc(N3CCC4(CN(c5ccnc(C(F)(F)F)c5)C4)C3)cnc21
4.30 to 5.00

Quick one: give measured pEC50 for O=C1N(c2ccnc(C(F)(F)F)n2)CCC12CCN(c1ncc3cnn(CC(F)F)c3n1)CC2
> 5.00

Indicate its recorded pEC50; the compound in question is FC(F)Cn1ncc2ncc(N3CCC4(CN(c5cnc(C(F)(F)F)cn5)C4)C3)nc21
4.30 to 5.00

Assign pEC50 to the following record: O=C(c1cnc(C(F)(F)F)nc1)N1CCC2(CCN(c3cnc4cnn(CC(F)F)c4n3)CC2)C1
4.30 to 5.00

Output pEC50 of O=C1N(c2cccc(C(F)(F)F)n2)CCCC12CN(c1cnc3cnn(CC(F)F)c3n1)C2
4.30 to 5.00

Output pEC50 of Cn1c(-c2ccccc2)c(C(=O)N2CCCC3(CC(Oc4cccnc4C(F)(F)F)C3)C2)c2nccnc21 (stereo not shown)
4.30 to 5.00

Give pEC50 for FC(F)Cn1ncc2ncc(N3CCC4(CCC(Oc5ncccc5C(F)(F)F)C4)CC3)nc21 (stereo not shown)
4.30 to 5.00

Please supply the value of reported pEC50 for the item Cc1nc(C(F)(F)F)ncc1N1CCC2(CCN(c3cnc4cnn(CC(F)F)c4n3)CC2)C1
> 5.00

Query pEC50 for O=C1CC2(CCN(c3cnc4cnn(CC(F)F)c4n3)CC2)CN1Cc1ccc(Cl)cc1
4.30 to 5.00

Specify pEC50 for Cc1cc(N2CC3(CCN(c4cnc5cnn(C6COC6)c5n4)C3)C2)cc(C(F)(F)F)n1 and stop.
4.30 to 5.00

---

# system: GCase (Homo sapiens, UniProt P04062)
# Construct: endogenous in cells; host or cells: HeLa cells
# test: activation of GCase in a live cell PFB assay in HELA cells
# Format: cell-based
# experimental-conditions: activation of GCase, EC50 ranges
observable: EC50

Give EC50 for Cc1ncc(-c2nncs2)nc1N1CCC2(CN(c3cnc(C(F)(F)F)nc3)C2)C1 [Cmpd 1038]
10 to 50 µM

State its EC50: FC(F)Cn1ncc2ncc(N3CCC4(CCN(c5ccc(C(F)(F)F)cn5)C4)CC3)nc21 [Compound 144]
< 10 µM

Please report the measured EC50 for O=C1CC2(CCN(c3cnc4cnn(CC(F)F)c4n3)CC2)CN1c1cnc(C(F)(F)F)nc1 [Cmpd 305]
10 to 50 µM

Using the record for CC1N(c2cc(C(F)(F)F)ccn2)CCC12CCN(c1cnc3cnn(CC(F)F)c3n1)CC2 (stereo not shown) [Cmpd 747] , state its measured EC50.
10 to 50 µM

Look up and state reported EC50 for O=C(c1ccc(C(F)(F)F)cn1)N1CC2(CCN(c3cnc4cnn(CC(F)F)c4n3)CC2)C1 [Cmpd 328]
10 to 50 µM

Others:
Please indicate EC50 recorded for Cc1cnc(CN2CC3(CCN(c4cnc5cnn(CC(F)F)c5n4)CC3)CC2=O)s1 [Cmpd 975]
10 to 50 µM

Name the recorded EC50 of the compound listed here: FC(F)Cn1ncc2ncc(N3CCC4(CC3)CC(Oc3ccc(C(F)(F)F)cn3)C4)nc21 [Cmpd 710]
10 to 50 µM

Return EC50 for the following compound: O=C(c1cccc(Cl)c1)N1CC2(CCN(c3cnc4cnn(CC(F)F)c4n3)C2)C1 [Cmpd 371]
< 10 µM

Could you please provide reported EC50 for CCN1C(=O)N(c2ccc(C(F)(F)F)cc2)C(=O)C12CCN(c1cnc3c(C)nn(CC(F)F)c3n1)CC2 [Cmpd 872] ? Thanks!
< 10 µM
